For each of the compounds below, state its IC50 cell viability.
# Tested on: MIA PaCa-2
# condition.summary: OFD1 knockdown: no (no doxycycline)

Reported IC50 cell viability for C[C@@H]1C[C@H]2[C@@H]3CCC4=CC(=O)C=C[C@]4(C)[C@@]3(F)[C@@H](O)C[C@]2(C)[C@@]1(O)C(=O)CO was 8.52 µM

Entry CNC(=O)c1cc(Oc2ccc(NC(=O)Nc3ccc(Cl)c(C(F)(F)F)c3)cc2)ccn1 , IC50 cell viability reported as 8.15 µM

Noted for Cc1cccc(C)c1NC1=NCCCS1 : its IC50 cell viability reads 15.3 µM

So for FC(F)(F)c1ccc(/C=C/c2nc(COc3ccc(CCCCn4ccnn4)cc3)co2)cc1 , the logged IC50 cell viability turned out to be 41.1 µM

Reported IC50 cell viability ( CS(=O)(=O)N1CCN(Cc2cc3nc(-c4cccc5[nH]ncc45)nc(N4CCOCC4)c3s2)CC1 ) = 10.2 µM

Recorded IC50 cell viability (compound COc1cc2ncnc(Nc3ccc(F)c(Cl)c3)c2cc1NC(=O)/C=C/CN1CCCCC1 ): 30.1 µM

Given item Cc1ccc(NC(=O)c2ccc(CN3CCN(C)CC3)cc2)cc1Nc1nccc(-c2cccnc2)n1 [S1026] , the value recorded as its IC50 cell viability is 15 µM

compound Cc1nc(Nc2ncc(C(=O)Nc3c(C)cccc3Cl)s2)cc(N2CCN(CCO)CC2)n1 , IC50 cell viability observed: 0.81 µM

Lab note: measured IC50 cell viability of CCC1=C[C@@H]2CN(C1)Cc1c([nH]c3ccccc13)[C@@](C(=O)OC)(c1cc3c(cc1OC)N(C)[C@H]1[C@@](O)(C(=O)OC)[C@H](OC(C)=O)[C@]4(CC)C=CCN5CC[C@]31[C@@H]54)C2 was 3.46 µM

IC50 cell viability reported for this compound Cc1ccc([C@@H]2O[C@H](CO)[C@@H](O)[C@H](O)[C@H]2O)cc1Cc1ccc(-c2ccc(F)cc2)s1 : 21.9 µM

Reported IC50 cell viability of O=C(c1cc(Cc2n[nH]c(=O)c3ccccc23)ccc1F)N1CCN(C(=O)C2CC2)CC1 : 53.8 µM

Value of IC50 cell viability reported for the compound CS(=O)(=O)CCNCc1ccc(-c2ccc3ncnc(Nc4ccc(OCc5cccc(F)c5)c(Cl)c4)c3c2)o1 [S1028] is 16.8 µM

The value of IC50 cell viability measured for the compound Cc1ccc(C(=O)N(CCCN)[C@@H](c2nc3cc(Cl)ccc3c(=O)n2Cc2ccccc2)C(C)C)cc1 turned out to be 1.44 µM

IC50 cell viability reported for this compound C=C1/C(=C\C=C2/CCC[C@]3(C)[C@@H]([C@H](C)/C=C/[C@H](C)C(C)C)CC[C@@H]23)C[C@@H](O)C[C@@H]1O : 46.5 µM

// recorded IC50 cell viability for C[C@]12C=CC(=O)N[C@@H]1CC[C@@H]1[C@@H]2CC[C@]2(C)[C@@H](C(=O)Nc3cc(C(F)(F)F)ccc3C(F)(F)F)CC[C@@H]12 : 2.38 µM

Documented IC50 cell viability of Nc1nc(F)nc2c1ncn2[C@@H]1O[C@H](COP(=O)(O)O)[C@@H](O)[C@@H]1O : 2.26 µM

For record CCOc1cc2ncc(C#N)c(Nc3ccc(F)c(Cl)c3)c2cc1NC(=O)/C=C/CN(C)C the listed IC50 cell viability is 53.8 µM
